target: Calcium-dependent protein kinase 4 (Plasmodium falciparum (isolate 3D7)); test: PfCDPK4 kinase inhibitors, biochemical, TCAMS library (AID 1159588); conditions: recombinant PfCDPK4, Kinase-Glo ATP depletion luminescence
Measured potencies and affinities stand elsewhere. Active and inactive are the calls of the source. The limit is not given here; nearly all actives have IC50 up to about 0.91 µM.

{"Compound": "CC(C)NCc1ccc(-c2cccc(CN3CCC(c4ccccc4)CC3)c2)c(C(=O)NCC2CCCCC2)c1", "outcome": "inactive"}
{"Compound": "CCc1cccc(NC(=O)/C=C/c2ccc3c(c2)CN(C)CC3)c1", "outcome": "inactive"}
{"Compound": "Cc1cc(N(CCCN(C)C)Cc2cc(F)cc(F)c2)nc(Nc2ccc(Cl)cc2)n1", "outcome": "inactive"}
{"Compound": "N#Cc1ccc(-c2ccc(OCC(O)CN3CCCN(C(=O)C(c4ccc5c(c4)OCO5)N4CCN(C/C=C/c5ccccc5)CC4)CC3)cc2)cc1 (stereo not given)", "outcome": "inactive"}
{"Compound": "CN1CCC(N(Cc2ccc(N3CCN(Cc4c[nH]c5ccc(Cl)cc45)CC3)nc2)C2CC2)CC1", "outcome": "inactive"}

###

test: antimalarial activity against Dd2 strain (AID 2302);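 also: 0% = DMSO untreated growth and 100% = chloroquine plus artemisinin killed control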; conditions: P. falciparum Dd2 in RBCs, LDH growth readout, 72 h; at 2 µM; hits give high values
# cutoff 20% applies to growth inhibition; >= gives Criterion met, < gives Criterion not met

{"Compound": "Cn1nccc1C(=O)NCCNCc1cccc(-c2cccc(-c3nc4ccc(F)cc4[nH]3)c2)c1", "Group": "Criterion not met"}
{"Compound": "COc1cccc2cc(C(=O)N[C@@H](CC(C)C)C(=O)N[C@H](/C=N/N(C)C(=O)OC(C)(C)C)CC(=O)OC(C)(C)C)oc12", "Group": "Criterion met"}
{"Compound": "COc1cc2nc(N3CCC(CNC(=O)c4ccc(C(C)=O)cc4)CC3)nc(N)c2cc1OC", "Group": "Criterion not met"}
{"Compound": "O=C1COc2ccc(CNC3CCC(O)(CCc4ccnc5cc6c(cc45)OCCO6)CC3)nc2N1 (centres undefined)", "Group": "Criterion not met"}
{"Compound": "COc1cc(Cc2cnc(N)nc2N)cc(OC)c1OCCCCC(=O)O", "Group": "Criterion not met"}
{"Compound": "COc1ccc2nccc([C@@H](O)CN3CCC(NC(=O)c4cc5ccccc5[nH]4)CC3)c2c1", "Group": "Criterion met"}
{"Compound": "Cc1nn(CC(C)C)c2sc(C(=O)Nc3nc(-c4ccccn4)cs3)cc12", "Group": "Criterion met"}
{"Compound": "Cc1nccn1CCNC(=O)CN1CCC2(CCC1=O)CC(=O)c1ccccc1O2 (centres undefined)", "Group": "Criterion not met"}
{"Compound": "CC(=O)c1ccc(S(=O)(=O)N2CCC(C(=O)Nc3ccccc3N3CCCC3)CC2)cc1", "Group": "Criterion met"}
{"Compound": "O=C(Nc1ccc(Br)cc1)Nc1ccc(Cn2ncc(N3CCCNCC3)c(Cl)c2=O)cc1", "Group": "Criterion not met"}
{"Compound": "COc1ccc2nccc([C@@H](O)CN3CCC(NC(=O)c4cccc(C(=O)c5ccccc5)c4)CC3)c2c1", "Group": "Criterion met"}
{"Compound": "COc1cc2nccc(Nc3cccc(Oc4ccccc4)c3)c2cc1OC", "Group": "Criterion met"}
{"Compound": "COc1cc(NC(=O)Nc2cc(C)nc3ccccc23)cc(OC)c1", "Group": "Criterion met"}
{"Compound": "O=C1C2=C(Nc3ccccc3SC2c2ccccc2)c2ccccc21 (centres undefined)", "Group": "Criterion met"}
{"Compound": "CCOC(=O)Cn1ccc2c(NCc3ccccc3)nc(C)nc21", "Group": "Criterion not met"}
{"Compound": "O=C(CCc1ccccc1)NC(c1ccc(Cl)cc1)c1ccc2cccnc2c1O (centres undefined)", "Group": "Criterion met"}
{"Compound": "CN(C(=O)/C=C/c1cc(C(F)(F)F)ccc1F)C1CCN(CCCCCNC(=O)/C=C/c2ccc(Cl)c(Cl)c2)C1 (centres undefined)", "Group": "Criterion not met"}
{"Compound": "O=C(/C=C/c1ccc(Cl)c(Cl)c1)NCCCCCN1CCC(NC(=O)Nc2ccc(OC(F)F)cc2)CC1", "Group": "Criterion not met"}
{"Compound": "CCOc1ccc(OCC)c(N2CCN(CCCCNC(=O)c3ccc(NC(=O)c4ccc(Cl)cc4)cc3)CC2)c1", "Group": "Criterion met"}

###

target: L-lactate dehydrogenase (Plasmodium falciparum (isolate CDC / Honduras)) (UniProt Q27743); assay: PfLDH activity inhibition – cell lysate, 3D7 strain, counter-screen for P. falciparum growth inhibition project (AID 2304);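 also: 0% = vehicle and 100% = reference inhibitor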; conditions: P. falciparum 3D7 crude extract, LDH APAD/NBT absorbance; at 2 µM; hits give high values
Sequence (Q27743 whole entry, looked up): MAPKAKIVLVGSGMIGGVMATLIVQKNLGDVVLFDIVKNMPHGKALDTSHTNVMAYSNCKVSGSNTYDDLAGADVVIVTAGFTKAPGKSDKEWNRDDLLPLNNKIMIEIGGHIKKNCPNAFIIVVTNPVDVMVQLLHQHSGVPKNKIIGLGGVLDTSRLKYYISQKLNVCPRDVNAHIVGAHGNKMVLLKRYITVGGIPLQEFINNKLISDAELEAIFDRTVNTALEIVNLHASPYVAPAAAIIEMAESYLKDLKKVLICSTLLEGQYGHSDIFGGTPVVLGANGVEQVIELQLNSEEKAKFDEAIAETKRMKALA

{"Molecule": "COc1ccc(CN(C)CCCOc2ccc(NC(=O)C=Cc3ccc(C(C)(C)C)cc3)cc2)cc1OC", "inhibition / %": 2}
{"Molecule": "CCCC(CNCc1cccc(OCC)c1)CNc1cc(=O)c2ccccc2[nH]1 (centres undefined)", "inhibition / %": 4}
{"Molecule": "O=C(/C=C/c1ccc(Cl)c(Cl)c1)NCCC(CN1CCC(c2c[nH]c3ccccc23)CC1)c1ccccc1 (centres undefined)", "inhibition / %": -6}
{"Molecule": "N#Cc1ccc(-c2ccc3nc(N4CCCN(C5CCC5)CC4)ccc3c2)cc1", "inhibition / %": -2}
{"Molecule": "COc1ccc2c(NN=Cc3ccc(F)cc3)cc(C)nc2c1", "inhibition / %": -3}
{"Molecule": "Cc1cc(N2CCOCC2)nc2ccc(NC(=O)c3cccc([N+](=O)[O-])c3)cc12", "inhibition / %": 0}
{"Molecule": "FC(F)(F)c1ccc2nc(-c3ccc(-c4ccc(CNCCN5CCNCC5)cc4)cc3)[nH]c2c1", "inhibition / %": -4}
{"Molecule": "NCC1CCCN1Cc1ccc(-c2ccc(-c3nc4ccc(F)cc4[nH]3)cc2)cc1 (centres undefined)", "inhibition / %": -3}
{"Molecule": "Cn1c(NC(=O)C2CCCN(C(=O)c3ccc(O)c(-c4ccc(Cl)c(Cl)c4)c3)C2)nc2ccccc21 (centres undefined)", "inhibition / %": -3}
{"Molecule": "NC(N)=NC(=O)Nc1cc(Cl)c(Cl)c(Br)c1", "inhibition / %": -2}
{"Molecule": "CC(C)N1CCC(N(Cc2ccc(-c3ccc(C(F)(F)F)cc3)cc2)C(=O)Cn2c(CCc3cccc(F)c3F)cc(=O)c3c2CCC3)CC1", "inhibition / %": -7}
{"Molecule": "Cc1ccc(NC(=O)c2ccc3ncccc3c2)cc1OC1CCN(Cc2ccc(F)cc2)C1 (centres undefined)", "inhibition / %": 3}
{"Molecule": "OC(CNCCc1ccccc1)Cn1c2ccc(Cl)cc2c2cc(Cl)ccc21 (centres undefined)", "inhibition / %": 8}
{"Molecule": "c1cncc(CCNCc2cccc(-c3csc(-c4nc5ccccc5[nH]4)c3)c2)c1", "inhibition / %": -1}
{"Molecule": "COc1cccc(CNC[C@@H](O)[C@H](Cc2ccccc2)NC(=O)c2cc(OC(C)C)cc(N3CCCCS3(=O)=O)c2)c1", "inhibition / %": 5}
{"Molecule": "c1ccc(Oc2ccc(Nc3ccnc4cc(-c5csc(CNCCN6CCOCC6)n5)ccc34)cc2)cc1", "inhibition / %": 0}
{"Molecule": "O=C(Nc1cccc(-c2cccc(-c3nc4ccc(C(F)(F)F)cc4[nH]3)c2)c1)c1csnn1", "inhibition / %": 3}
{"Molecule": "CNCCNc1nccc(N2CCc3ncnc(Nc4ccc(OCc5cccc(F)c5)c(Cl)c4)c3C2)n1", "inhibition / %": -4}
{"Molecule": "O=C1CCCN1CCCNCc1ccc(-c2ccc(-c3nc4ccc(C(F)(F)F)cc4[nH]3)s2)cc1", "inhibition / %": -4}

###

test: human hepatoma cell viability loss – ATP luminescence, cytotoxicity control for P. falciparum antimalarial project, primary screen (AID 2303); conditions: HepG2 viability, 24-48 h, at 10 µM;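 also: 0% = DMSO wells and 100% = digitonin-killed cells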
Activity calls are given as the source filed them.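 Rule for the calls: active = inhibition above 50%; inactive = the rest.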
Labels: 1.0 for active, 0.0 for inactive

{"Compound": "Fc1ccc2nc(-c3cccc(-c4cccc(CN5CCN(c6cnccn6)CC5)c4)c3)[nH]c2c1", "Group": 0.0}
{"Compound": "O=C(N[C@H]1CCN(Cc2ccc(OC3CCN(Cc4ccccc4)CC3)c(Cl)c2)C1)c1ccc(Cl)c(Cl)c1", "Group": 1.0}
{"Compound": "COc1cc2c(C3CCN(CC4CCC(NC(=O)/C=C/c5ccc(Cl)c(Cl)c5)CC4)CC3)c[nH]c2cn1 (centres undefined)", "Group": 0.0}
{"Compound": "COc1cc(NCCCNCc2cn(Cc3cc(Br)cc(Br)c3)c3ccccc23)nc2ccccc12", "Group": 1.0}
{"Compound": "CN(C)CCNCc1cccc(-c2ccc3c(Nc4cc(O)c(Cl)cc4F)ccnc3c2)c1", "Group": 0.0}
{"Compound": "O=C(Nc1cccc(C2=NCCCN2)c1)Nc1cccc(C2=NCCCN2)c1", "Group": 0.0}
{"Compound": "Cc1cccc2[nH]c(-c3cccc(-c4ccc(C(=O)N5CCCCC5C(C)O)cc4)c3)nc12 (centres undefined)", "Group": 0.0}
{"Compound": "Cc1ccc(Oc2c(-c3ccccc3CN3CCCC3CN(C)C)cnn(C)c2=O)cn1 (centres undefined)", "Group": 0.0}
{"Compound": "COc1ccc(NC(=O)[C@H](Cc2ccccc2)Nc2cc(C)nc(NCc3ccccc3C)n2)cc1", "Group": 0.0}
